Reference for the values: PubChem BioAssay (NCI)

Test system: PC-3 prostate
Assay explanation: NCI tumour cell line growth inhibition, 48 h
Provide the recorded TGI for the entries that follow.
Quick reminder: number only, in µM, skip the unit.

Query: Fill blank: measured TGI of the molecule CCC/C=C/c1cc2c(cc1O)CC[C@@H]1[C@@H]2CC[C@]2(C)[C@@H](O)CC[C@@H]12 is ____.
Result: 31

Query: Another molecule: O=S(=O)(NC1=NCCN1C(=S)SN1CCn2c1nsc2=S)c1cccc(Cl)c1
Result: 47.2

###

System: A498 renal
Assay explanation: NCI tumour cell line growth inhibition, 48 h
Observation type: TGI (µM)
Quick reminder: number only, in µM, skip the unit.

Query: Fill blank: measured TGI of the molecule C/C(Cl)=N/OC(=O)Nc1ccc(S(N)(=O)=O)c(C)c1 is ____.
Result: 41.3

Query: Another molecule: O=S(=O)(O)C1=C2Sc3ccccc3N=C2c2ccccc2C1
Result: 32.8

###

Test system: HS 578T breast
Assay explanation: NCI tumour cell line growth inhibition, 48 h
Observation type: TGI (µM)
Quick reminder: number only, in µM, skip the unit.

Query: Fill blank: measured TGI of the molecule OCCCNc1nc(=S)[nH]c2[nH]ncc12 is ____.
Result: 85.1

Query: Another molecule: C[N+]1=C(/C=C/c2ccc(O)c3ncccc23)C(C)(C)c2ccccc21
Result: 8.14

Query: Another molecule: CCCCCCCCn1ccc2cc(NC(=O)Cn3cc(CN4CCCC4)nn3)ccc21
Result: 4.74

Query: Another molecule: CC(=O)c1sc2c(c1OC(=O)c1ccco1)c(=O)n(-c1ccccc1)c(=S)n2-c1ccccc1
Result: 20

Query: Another molecule: N#CSC1CCCCNC1=O (centres undefined)
Result: 50.4

###

Provide the recorded TGI for the entries that follow.
System: SNB-19 CNS
Assay explanation: NCI tumour cell line growth inhibition, 48 h

Query: Fill blank: measured TGI of the molecule Cc1cc2c(cc1C(=O)CCC(=O)O)CC1(C2)Cc2cc(C)c(C(=O)CCC(=O)O)cc2C1 is ____.
Result: > 100 µM

Query: Another molecule: COc1ccc(N2C(=O)/C(=C/c3ccc(N(CCC#N)CCC#N)cc3C)N=C2c2cc([N+](=O)[O-])ccc2Cl)cc1
Result: 28.9 µM

Query: Another molecule: COc1ccc(C[C@@H](CO)NC2=C(C#N)CCC2)cc1
Result: > 100 µM

Query: Another molecule: COc1ccc(C(=O)C#Cc2cnc(OC)nc2OC)cc1
Result: 24.7 µM

Query: Another molecule: COc1ccc2c(c1)CCCN2c1c2ccccc2nc2ccccc12
Result: > 100 µM

Query: Another molecule: CCOC(=O)c1c(NC(=O)c2cccs2)sc2c1CCC2
Result: > 100 µM

Query: Another molecule: Nc1nccc(-c2c(-c3ccc(F)cc3)ncn2C2CCC(O)CC2)n1 (stereo not given)
Result: > 25 µM

Query: Another molecule: COC(=O)c1cc2c(cc1CC1Cc3cc4c(cc3C1=O)CCC4)CCC2 (stereo not given)
Result: > 100 µM

Query: Another molecule: Cc1ccc(-c2nc3nc(-c4ccccc4)nc(N4CCCNCC4)c3o2)cc1
Result: 3.11 µM

Query: Another molecule: c1nc(N2CC2)c2cnn(C3CCCCO3)c2n1 (stereo not given)
Result: > 100 µM

###

System: SW-620 colon
Assay explanation: NCI tumour cell line growth inhibition, 48 h; in the data active = GI50 below about 0.43 µM; inactive = the rest
Please state which outcome applies, choosing from active, inactive

Query: Dear colleague, could you share the recorded outcome for NC(=O)NS(=O)(=O)c1ccc(N2N=C(C(F)(F)F)CC2c2cc(C(F)(F)F)cc(C(F)(F)F)c2)cc1 (stereo not given) when you have a moment?
Result: inactive

Query: Another compound: N#CC(C#N)=C1Nc2ccccc2S1
Result: inactive

Query: Another compound: CCCCCCCC[C@@H](O)CC(=O)N[C@@H](CC(N)=O)C(=O)N[C@@H](CCC(N)=O)C(=O)N[C@@H](CC(=O)c1cc(C)cc(O)c1C(=O)c1c(O)cccc1O)CC(C)C
Result: active

Query: Another compound: CS(=O)(=O)CCNCc1ccc(-c2ccc3ncnc(Nc4ccc(OCc5ccccc5)cc4)c3c2)o1
Result: inactive

Query: Another compound: O=C(O)CCNC1CCCCC1
Result: inactive

Query: Another compound: CC1(C)OC2=C(CC1Br)C(=O)C(=O)c1ccccc12 (stereo not given)
Result: inactive

Query: Another compound: O=C1CCC(N2C(=O)c3ccccc3C2=O)C(=O)N1CO (stereo not given)
Result: inactive

Query: Another compound: CCOC1Oc2ccc(C)cc2C(=O)/C1=C\Nc1ccc(C(N)=O)cc1 (stereo not given)
Result: inactive

Query: Another compound: O=c1cc(-c2ccccc2)oc2cc(OC/C(=N/O)c3ccccc3)ccc12
Result: inactive

Query: Another compound: C=C(C[C@](O)(C(=O)/C=C/c1ccc(Cl)cc1)C(=O)OC)c1ccccc1
Result: inactive
